Examples of sequences with documented switch fluorescence ratio follow.
Tested on: ATP;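 note: ATP exposure 15 min at 22 °C before imaging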
Assay: switch fluorescence ratio, 500 uM ATP over buffer (Cy3 cluster intensity, sum of 5 cycles each) (fold (ratio)); higher = stronger signal-on switching upon ATP binding; sequences stand for … in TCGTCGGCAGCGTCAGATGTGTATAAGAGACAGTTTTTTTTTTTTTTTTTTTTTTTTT…TC
Conditions: aptamer strand: ATP DNA aptamer (quencher-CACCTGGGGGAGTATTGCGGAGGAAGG + anchor), 100 nM annealed; ATP concentration: 500 uM
In your answer, state the number alone without any accompanying words.

Measured switch fluorescence ratio (ATP), entry GAGGGAAGGG : 0.994

Measured switch fluorescence ratio (ATP), entry TGTGGGGTAT : 1.07

Measured switch fluorescence ratio (ATP), entry AGAATCGACG : 0.993

Measured switch fluorescence ratio (ATP), entry GAGGGGGGCA : 0.977

Measured switch fluorescence ratio (ATP), entry TAGGAGTTAT : 1.01

Measured switch fluorescence ratio (ATP), entry GCATCCGTCG : 1.04

---

System: ATP;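 note: ATP exposure 15 min at 22 °C before imaging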
Experiment: switch fluorescence ratio, 500 uM ATP over buffer (Cy3 cluster intensity, sum of 5 cycles each) (fold (ratio)); higher = stronger signal-on switching upon ATP binding; sequences stand for … in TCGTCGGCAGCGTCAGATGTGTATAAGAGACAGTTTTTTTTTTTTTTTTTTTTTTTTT…TC
Conditions: aptamer strand: ATP DNA aptamer (quencher-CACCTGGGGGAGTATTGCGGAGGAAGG + anchor), 100 nM annealed; ATP concentration: 500 uM
Returns one of yes or no; yes when switch fluorescence ratio is >= 1.

Study these solved cases before continuing.
Confirm if switch fluorescence ratio reported for the sequence TCTGGGGCTG is 1 or above.
no

Confirm if switch fluorescence ratio reported for the sequence CGACGGATTT is 1 or above.
yes

Confirm if switch fluorescence ratio reported for the sequence ATTCACGGGC is 1 or above.
yes

Confirm if switch fluorescence ratio reported for the sequence CTGAAGGGGG is 1 or above.
no

Confirm if switch fluorescence ratio reported for the sequence TTTAGTGCAT is 1 or above.
yes

Confirm if switch fluorescence ratio reported for the sequence GCTATAAGTG is 1 or above.
no

Now take the following sequence into account.
Confirm if switch fluorescence ratio reported for the sequence GACGACGTGT is 1 or above.
yes

---

Tested on: ATP;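 note: ATP exposure 15 min at 22 °C before imaging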
Experiment: switch fluorescence ratio, 500 uM ATP over buffer (Cy3 cluster intensity, sum of 5 cycles each) (fold (ratio)); higher = stronger signal-on switching upon ATP binding; sequences stand for … in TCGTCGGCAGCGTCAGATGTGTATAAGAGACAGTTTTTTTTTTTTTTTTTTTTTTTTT…TC
Settings: aptamer strand: ATP DNA aptamer (quencher-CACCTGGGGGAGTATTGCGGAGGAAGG + anchor), 100 nM annealed; ATP concentration: 500 uM
Returns one of true or false; true when switch fluorescence ratio is >= 1.

Confirm if switch fluorescence ratio reported for the sequence GTTCCGCGGT is 1 or above.
true

Confirm if switch fluorescence ratio reported for the sequence TTGGCCTAAA is 1 or above.
false

Confirm if switch fluorescence ratio reported for the sequence TTGTGGCAAC is 1 or above.
true

Confirm if switch fluorescence ratio reported for the sequence AAAACATTTT is 1 or above.
true

Confirm if switch fluorescence ratio reported for the sequence AGCCATAGTC is 1 or above.
true

---
Confirm if switch fluorescence ratio reported for the sequence GATGCGCCGG is 1 or above.
true

Confirm if switch fluorescence ratio reported for the sequence CACAGGGGGA is 1 or above.
true

Confirm if switch fluorescence ratio reported for the sequence GGGGGCCGGC is 1 or above.
true

Confirm if switch fluorescence ratio reported for the sequence AGGGCGAAGA is 1 or above.
false

Confirm if switch fluorescence ratio reported for the sequence GATACGTGGG is 1 or above.
false

Confirm if switch fluorescence ratio reported for the sequence CCAGTAATGT is 1 or above.
true

Confirm if switch fluorescence ratio reported for the sequence ACTCGGTTTG is 1 or above.
false

Confirm if switch fluorescence ratio reported for the sequence ACATACGGGG is 1 or above.
true

Confirm if switch fluorescence ratio reported for the sequence CCGGATACGT is 1 or above.
true

Confirm if switch fluorescence ratio reported for the sequence GGGGTAGGGC is 1 or above.
true

Confirm if switch fluorescence ratio reported for the sequence TCAATGGTAA is 1 or above.
false
